ASSAY TARGET: T1, Recombinant Human DLL4 (delta-like protein 4) (human, UniProt Q9NR61 27-524)
T1 construct: Bought recombinant human DLL4 (R&D Systems Cat#1506-D4/CF); also called rHuman DLL4; Delta-like 4
ASSAY EXPLANATION: ELISA, DLL4 coated on plate, Fab at 50 nM
# key: entry, value: ELISA signal
Number, no unit, nothing else.

| BINDER | ELISA signal |
| --- | --- |
| Fab VH1-46_IGHD6-6*01_IGHJ1*01 S102A/S103P/S104F/H111F & L6_IGKJ1*01 S30D (Fab, V domains shown, Tested as a Fab; also called APFF & S30D) VH: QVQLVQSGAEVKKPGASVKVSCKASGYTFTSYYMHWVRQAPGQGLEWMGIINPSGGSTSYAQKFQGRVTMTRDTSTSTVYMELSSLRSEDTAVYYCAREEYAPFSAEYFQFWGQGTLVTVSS VL: EIVLTQSPATLSLSPGERATLSCRASQSVDSYLAWYQQKPGQAPRLLIYDASNRATGIPARFSGSGSGTDFTLTISSLEPEDFAVYYCQQRSNWPPWTFGQGTKVEIKR | 0.06 |
| Fab VH1-46_IGHD6-6*01_IGHJ1*01 S102A/S103P/S104F/H111F & L6_IGKJ1*01 S28N (Fab, V domains shown, Tested as a Fab; also called APFF & S28N) VH: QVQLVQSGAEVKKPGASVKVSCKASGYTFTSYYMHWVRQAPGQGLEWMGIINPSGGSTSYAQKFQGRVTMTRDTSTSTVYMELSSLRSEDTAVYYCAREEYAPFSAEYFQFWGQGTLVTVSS VL: EIVLTQSPATLSLSPGERATLSCRASQNVSSYLAWYQQKPGQAPRLLIYDASNRATGIPARFSGSGSGTDFTLTISSLEPEDFAVYYCQQRSNWPPWTFGQGTKVEIKR | 0.07 |
| Fab VH1-46_IGHD6-6*01_IGHJ1*01 S102A/S103P/S104F/H111F & L6_IGKJ1*01 S28H (Fab, V domains shown, Tested as a Fab; also called APFF & S28H) VH: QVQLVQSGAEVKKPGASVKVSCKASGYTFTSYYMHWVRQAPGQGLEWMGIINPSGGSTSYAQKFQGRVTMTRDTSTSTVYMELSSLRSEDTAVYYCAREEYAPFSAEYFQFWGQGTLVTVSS VL: EIVLTQSPATLSLSPGERATLSCRASQHVSSYLAWYQQKPGQAPRLLIYDASNRATGIPARFSGSGSGTDFTLTISSLEPEDFAVYYCQQRSNWPPWTFGQGTKVEIKR | 0.05 |

Now look at this one.
-- ask Suppose we examine the binder Fab VH1-46_IGHD6-6*01_IGHJ1*01 S102A/S103P/S104F/H111F & L6_IGKJ1*01 S31H (Fab, V domains shown, Tested as a Fab; also called APFF & S31H) VH: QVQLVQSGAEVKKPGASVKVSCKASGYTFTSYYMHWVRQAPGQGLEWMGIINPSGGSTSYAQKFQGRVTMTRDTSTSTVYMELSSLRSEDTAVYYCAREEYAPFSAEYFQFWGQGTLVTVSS VL: EIVLTQSPATLSLSPGERATLSCRASQSVSHYLAWYQQKPGQAPRLLIYDASNRATGIPARFSGSGSGTDFTLTISSLEPEDFAVYYCQQRSNWPPWTFGQGTKVEIKR ; what ELISA signal value has been reported?
-- reply 0.05
